biological target: PI3Kα (Homo sapiens (Human), UniProt P42336)
Sequence (P42336 whole entry): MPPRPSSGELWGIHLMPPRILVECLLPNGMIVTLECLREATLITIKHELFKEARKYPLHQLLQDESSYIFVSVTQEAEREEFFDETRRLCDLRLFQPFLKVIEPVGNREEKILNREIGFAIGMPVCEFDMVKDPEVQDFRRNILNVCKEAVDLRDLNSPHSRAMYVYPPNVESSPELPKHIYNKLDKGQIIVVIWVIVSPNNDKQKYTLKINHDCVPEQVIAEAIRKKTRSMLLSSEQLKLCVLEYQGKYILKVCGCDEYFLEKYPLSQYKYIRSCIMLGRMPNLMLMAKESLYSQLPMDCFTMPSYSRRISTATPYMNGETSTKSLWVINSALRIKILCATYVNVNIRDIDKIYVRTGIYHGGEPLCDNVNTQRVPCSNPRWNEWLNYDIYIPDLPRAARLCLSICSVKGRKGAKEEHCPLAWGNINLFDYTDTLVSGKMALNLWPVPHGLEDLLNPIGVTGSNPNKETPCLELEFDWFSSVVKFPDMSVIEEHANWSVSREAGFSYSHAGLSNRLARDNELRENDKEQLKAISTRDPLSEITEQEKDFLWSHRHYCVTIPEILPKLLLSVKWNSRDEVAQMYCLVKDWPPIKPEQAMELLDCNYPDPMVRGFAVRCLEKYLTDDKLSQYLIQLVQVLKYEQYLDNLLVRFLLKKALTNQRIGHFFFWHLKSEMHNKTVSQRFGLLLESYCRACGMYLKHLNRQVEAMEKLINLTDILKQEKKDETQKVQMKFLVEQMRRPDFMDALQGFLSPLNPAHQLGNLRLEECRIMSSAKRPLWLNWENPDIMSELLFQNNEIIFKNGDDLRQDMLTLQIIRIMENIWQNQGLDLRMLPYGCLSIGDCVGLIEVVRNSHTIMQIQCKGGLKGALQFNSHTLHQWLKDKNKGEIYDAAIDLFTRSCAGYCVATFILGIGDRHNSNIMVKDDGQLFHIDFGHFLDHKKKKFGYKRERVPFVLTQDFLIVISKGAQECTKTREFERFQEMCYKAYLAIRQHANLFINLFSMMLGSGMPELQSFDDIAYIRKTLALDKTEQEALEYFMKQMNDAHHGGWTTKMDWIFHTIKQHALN
Sequence (P27986 whole entry partner): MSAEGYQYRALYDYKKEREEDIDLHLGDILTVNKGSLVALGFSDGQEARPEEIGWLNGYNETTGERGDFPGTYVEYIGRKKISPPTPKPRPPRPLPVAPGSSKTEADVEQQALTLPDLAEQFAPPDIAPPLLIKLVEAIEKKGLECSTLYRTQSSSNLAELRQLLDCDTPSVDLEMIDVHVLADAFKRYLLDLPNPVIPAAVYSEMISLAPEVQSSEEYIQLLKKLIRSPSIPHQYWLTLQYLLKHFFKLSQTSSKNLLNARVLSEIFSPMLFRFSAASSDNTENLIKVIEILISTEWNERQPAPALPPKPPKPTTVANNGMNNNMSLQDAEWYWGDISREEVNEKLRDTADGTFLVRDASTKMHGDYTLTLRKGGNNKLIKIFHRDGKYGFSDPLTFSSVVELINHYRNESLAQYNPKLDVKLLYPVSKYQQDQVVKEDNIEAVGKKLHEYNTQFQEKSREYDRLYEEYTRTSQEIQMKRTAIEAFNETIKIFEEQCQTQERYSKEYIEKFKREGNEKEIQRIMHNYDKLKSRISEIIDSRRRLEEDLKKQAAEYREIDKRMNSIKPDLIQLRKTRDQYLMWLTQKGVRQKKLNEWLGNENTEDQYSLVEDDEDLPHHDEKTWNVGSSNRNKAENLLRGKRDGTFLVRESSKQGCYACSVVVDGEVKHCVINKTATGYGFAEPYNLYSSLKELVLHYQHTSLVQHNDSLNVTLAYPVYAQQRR
Sorting guide: entries reporting IC50 beneath 60 nM go in the TRUE pile, the rest go in the FALSE pile.

[[record]]
compound = "C[C@@H](O)C(=O)N1CCN(Cc2csc3c(-c4cnc(N)nc4)nc(N4CCOCC4)nc23)CC1 [Compound 19]"
assigned_class = "TRUE"

[[record]]
compound = "CN(Cc1csc2c(-c3cnc(N)nc3)nc(N3CCOCC3)nc12)C(=O)CO [Compound 32]"
assigned_class = "TRUE"

[[record]]
compound = "CC(C)(O)C(=O)N1CCN(Cc2csc3c(-c4cnc(N)nc4)nc(N4CCOCC4)nc23)CC1 [Compound 20]"
assigned_class = "TRUE"

[[record]]
compound = "CC(C)(O)C1CCN(Cc2csc3c(-c4cnc(N)nc4)nc(N4CCOCC4)nc23)CC1 [Compound 17]"
assigned_class = "FALSE"

[[record]]
compound = "Cc1nc(N)ncc1-c1nc(N2CCOCC2)nc2c(CN3CCN(S(C)(=O)=O)CC3)csc12 [Compound 11]"
assigned_class = "TRUE"


Input line: Problem: For the compound Cc1sc2c(-c3cnc(N)nc3)nc(N3CCOCC3)nc2c1CN1CCN(C(=O)[C@@H](C)O)CC1 [Compound 25] , is IC50 under 60 nM?
Output line: TRUE

Input line: Problem: For the compound C[C@H](O)C(=O)N1CCN(Cc2csc3c(-c4cnc(N)nc4)nc(N4CCOCC4)nc23)CC1 [Compound 18] , is IC50 under 60 nM?
Output line: TRUE

Input line: Problem: For the compound C[C@@H](O)C(=O)N1CCN(Cc2csc3c(-c4cccc5[nH]ncc45)nc(N4CCOCC4)nc23)CC1 [Compound 23] , is IC50 under 60 nM?
Output line: FALSE
